Tested on: Trypanosoma cruzi
assay_explanation: Trypanosoma cruzi phosphomannomutase and mannose-1-phosphate guanylyltransferase assay
Type: functional
Design: scale not given: direction of the effect not stated beside the values
study_conditions: 10 µM
metric: Percent Effect (%)
Form entry: value (%) — number only.

>  <compound>
CC(CNC(=O)c1ccc(F)cc1Cl)N1CCCC1 (stereo not drawn)

>  <Percent Effect / %>
-2.82

$$$$

What value of Percent Effect has been reported for the following compound? COCCC(=O)N1CCC2(COCc3cnc(N4CCOCC4)nc32)C1 (stereo not drawn) -5.51

Entry Cc1cn(-c2ccccc2)nc1NS(=O)(=O)c1cc(C(=O)O)cs1 : reported Percent Effect = ? -2.15

----------
Tested on: Trypanosoma cruzi
assay_explanation: Trypanosoma cruzi phosphomannomutase and mannose-1-phosphate guanylyltransferase assay
Type: functional
Design: scale not given: direction of the effect not stated beside the values
study_conditions: 10 µM
metric: Percent Effect (%)
Use % as the unit, but write only the number.

Record request: Percent Effect value, item CCn1cc(N2Cc3nc(N4CCN(C)CC4)ncc3C2=O)cn1 -1.97

----------
Reported Percent Effect values are given for each entry in this list.
tested_system: Sialic acid-binding Ig-like lectin 9 (Homo sapiens) (UniProt Q9Y336)
Sequence (Q9Y336 whole entry): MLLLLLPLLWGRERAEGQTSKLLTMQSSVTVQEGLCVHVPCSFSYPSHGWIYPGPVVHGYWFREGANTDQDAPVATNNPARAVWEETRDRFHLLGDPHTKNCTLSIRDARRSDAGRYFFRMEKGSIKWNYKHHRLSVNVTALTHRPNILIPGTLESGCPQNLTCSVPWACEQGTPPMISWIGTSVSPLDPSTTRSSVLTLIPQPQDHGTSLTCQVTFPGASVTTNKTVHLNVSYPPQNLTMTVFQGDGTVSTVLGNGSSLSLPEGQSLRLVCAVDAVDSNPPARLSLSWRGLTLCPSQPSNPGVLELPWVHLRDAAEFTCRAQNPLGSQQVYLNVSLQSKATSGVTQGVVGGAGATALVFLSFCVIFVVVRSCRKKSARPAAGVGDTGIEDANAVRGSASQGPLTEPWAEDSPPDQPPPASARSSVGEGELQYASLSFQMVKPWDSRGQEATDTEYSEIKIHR
assay_explanation: Hs-Siglec9 ALPHAscreen SOP 20170721
Design: scale not given: direction of the effect not stated beside the values
study_conditions: 10 µM
Reply numerically in %, unit not repeated.

Please review the following examples before continuing.
>  <compound>
CC(C)c1nc2n(n1)CC(NCc1nc(-c3cccnc3)no1)CC2 (stereo not drawn)

>  <test_value>
-12.6

$$$$
>  <compound>
COCCC(=O)N1C[C@@H]2COC[C@]2(COCc2cccnc2)C1

>  <test_value>
-1.48

$$$$
>  <compound>
Cc1cc(CN2CCOCS2(=O)=O)ccc1F

>  <test_value>
3.16

$$$$
>  <compound>
COc1c(CNC2CCN(C(=O)C3CC3)CC2)c(C(C)C)nn1C

>  <test_value>
-2.41

$$$$
>  <compound>
CC(CNC(=O)c1ccccc1Oc1cccnc1)N(C)C (stereo not drawn)

>  <test_value>
12.9

$$$$
>  <compound>
CNS(=O)(=O)c1cccc(CNc2ccc(C(F)(F)F)nn2)c1

>  <test_value>
-0.144

$$$$
>  <compound>
Cc1noc([C@@H]2C[C@H]3OCC[C@H]3N(S(=O)(=O)c3cccnc3)C2)n1

>  <test_value>
6.79

$$$$
>  <compound>
CC(C(=O)NCc1ccnc(Oc2ccc(F)cc2)c1)n1cncn1 (stereo not drawn)

>  <test_value>
7.66

$$$$

GET /values?readout=Percent Effect&item= CC(C)(C)n1ncc2c1CCCC2NCc1cccc2c1OCO2 (stereo not drawn) 2.62

Can you look up the measured Percent Effect of O=C(NCc1ccc(OCC2CC2)nc1)c1c(F)cccc1F for me? -0.689

Recorded Percent Effect for O=C(NCC1CC1)C1CN(C(=O)c2cccnc2)CC12CCOCC2 (stereo not drawn) , please? 6.47

Entry under review: Cc1nc(CN2CCOC(CNc3cccnn3)C2)cs1 (stereo not drawn) . Reported Percent Effect? 10.4

Name the recorded Percent Effect for CN(CCc1ccccn1)S(=O)(=O)N1CCCC1c1ccco1 (stereo not drawn) . -10.8

----------
tested_system: AMP-activated protein kinase, AMPK (Homo sapiens) (UniProt P54646+O43741+P54619+Q9UGJ0+Q9Y478+Q13131+Q9UGI9)
assay_explanation: AMP-dependent Kinase enzyme assay. An in vitro enzyme assay that detects ADP turnover that is directly proportional to AMPK activity. This uses naive AMPK that is activated during the assay with MK-8722
Assay type: functional
Design: scale not given: direction of the effect not stated beside the values
study_conditions: 30 µM
metric: Percent Effect (%)
Quick note: give the figure in %, leave out the unit.

Example entries begin here.
>  <compound>
CC(O)CNCc1ccc(OCc2ccc3c(c2)OCCO3)cc1 (centres undefined)

>  <unit_text>
%

>  <Percent Effect>
0.644

$$$$
>  <compound>
CC(C)(C)NC(=O)NC(=O)CNC(C)(C)c1ccc2c(c1)OCCO2

>  <unit_text>
%

>  <Percent Effect>
-6.92

$$$$
>  <compound>
O=C(c1cn(-c2cc(N3CCOCC3)ncn2)cn1)N1CCSCC1

>  <unit_text>
%

>  <Percent Effect>
-3.63

$$$$
>  <compound>
CC1(C(=O)N2CCOCC2)CN(Cc2ccccn2)CCO1 (centres undefined)

>  <unit_text>
%

>  <Percent Effect>
-5.87

$$$$
>  <compound>
CCCn1[nH]cc/c1=N\C(=O)CN1CCn2c(nnc2C2CC2)C1

>  <unit_text>
%

>  <Percent Effect>
-11.3

$$$$
>  <compound>
CCc1nc(CN(C)C2CCN(Cc3cnc(C)cn3)C2)no1 (centres undefined)

>  <unit_text>
%

>  <Percent Effect>
-1.25

$$$$
>  <compound>
CN(C(=O)c1cccc(C(=O)NS(C)(=O)=O)c1)c1ccccc1

>  <unit_text>
%

>  <Percent Effect>
1.54

$$$$
>  <compound>
CCc1nnc2n1CCN(C(=O)c1csc(-c3cnn(C)c3)n1)C2

>  <unit_text>
%

>  <Percent Effect>
-3.73

$$$$
>  <compound>
CNc1cc(CNC(=O)c2ccccc2)nc(-c2ccncc2)n1

>  <unit_text>
%

>  <Percent Effect>
9.36

$$$$
>  <compound>
Cc1cc(C)n(CC2CCCCN2CC(=O)Nc2nncs2)n1 (centres undefined)

>  <unit_text>
%

>  <Percent Effect>
-5.11

$$$$

Any idea what its Percent Effect is? The compound is O=C(c1cccc(S(=O)(=O)NCCCc2ccco2)c1)N1CCOCC1 6.53

Entry O=C(NCC1CCOCC1)[C@H]1C[C@@H]2CCN(Cc3ccncc3)C[C@@H]2O1 has what Percent Effect? -3.45

Tell me the measured Percent Effect of Cc1ccc(C(=O)N2CCn3cc(CN(C)Cc4ccco4)nc3C2)o1 , please. 3.27

# lookup: Percent Effect of Cc1cc(C)n(CC2CCCN2C(=O)CCCNc2ncccn2)n1 (centres undefined) 1.29

Given the compound CC(=O)N1CCCC1C(=O)NCCOc1cc(C)cc(C)c1 (centres undefined) , what is its reported Percent Effect? -4.76

I'd like to know its Percent Effect. The compound in question is CN(C)CC1CN(CCOc2cccc(C#N)c2)CCO1 (centres undefined) -2.16

Name the reported Percent Effect value associated with the compound CC(C#N)CSc1ccccc1NCC(=O)NCc1ccccc1 (centres undefined) 11.4

What value of Percent Effect has been reported for the following compound? Cc1cccc(N2Cc3nc(=O)[nH]n3C2=O)c1 3.29

Quick one: Percent Effect of Cc1nn(C)c(C)c1C1CCCN1Cc1nc(-c2ccco2)no1 (centres undefined) ? -11.3

Report Percent Effect for COCC1CCCN(C(=O)c2cc(Cn3ccc4ccccc43)[nH]n2)C1 (centres undefined) please. 0.36

# query: Percent Effect of entry O=C(N1CCOCC1)N1CCc2ncnc(NC3CC3)c2CC1 6.99

Tell me the measured Percent Effect of CC(C)Oc1ncnc2c1CCN(Cc1cccs1)CC2 , please. 24.6

Value lookup for Percent Effect; key = CCN1CCn2c(C)cnc2C12CCN(C(=O)c1ccc(Cl)cc1)CC2 9.36

Would you kindly share the measured Percent Effect for Cc1cc(N2CCCN(C(=O)Cc3csc(C)n3)CC2)ccn1 ? 0.202
